Target: human HPK1 (MAP4K1) (Homo sapiens (Human))
Sequence (Q92918 17-274): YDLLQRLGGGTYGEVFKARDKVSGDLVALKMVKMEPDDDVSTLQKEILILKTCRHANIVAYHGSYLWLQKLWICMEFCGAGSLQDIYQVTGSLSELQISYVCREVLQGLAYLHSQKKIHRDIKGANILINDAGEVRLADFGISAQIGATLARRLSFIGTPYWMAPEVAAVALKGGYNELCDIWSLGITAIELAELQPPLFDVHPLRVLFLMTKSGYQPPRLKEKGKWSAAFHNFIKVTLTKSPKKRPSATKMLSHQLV
Assay: HPK1 IC50 Assay (TR-FRET peptide phosphorylation)
Type: biochemical
Conditions: recombinant HPK1 kinase domain 0.15 nM, 10 μM ATP, 1 μM STK S1 peptide; geometric mean of multiple experiments

- compound: "CC(=O)N1CCC2(CC1)C(=O)N([C@H]1C[C@@H](N3CCCCC3)C1)c1cc(-c3cc4ncn(C(C)C)c4c(Nc4cc(C(=O)NC5CCC5)c(C)cc4F)n3)ccc12 [Example 76]"
  IC50 (nM): 0.2
- compound: "CNC(=O)c1cc(Nc2nc(-c3ccc4c(c3)N([C@H]3C[C@@H](N5C[C@H]6CC[C@@H]5C6)C3)C(=O)C43CCN(C(C)=O)CC3)cc3ncn(C4CC4)c23)ccc1C [Example 44]"
  IC50 (nM): 0.2
- compound: "CCNC(=O)c1cc(Nc2nc(-c3ccc4c(c3)N([C@H]3C[C@@H](N5CCCCC5)C3)C(=O)C43CCN(C(C)=O)CC3)cc3ncn(C(C)C)c23)c(F)cc1C [Example 74]"
  IC50 (nM): 0.2
- compound: "Cc1cc(F)c(Nc2nc(-c3ccc4c(c3)N([C@H]3C[C@@H](N5CCCCC5)C3)C(=O)C4(C)C)cc3ncn(C(C)C)c23)cc1C(=O)NC(C)C [Example 176]"
  IC50 (nM): 0.2
- compound: "CCn1cnc2cc(-c3ccc4c(c3)N([C@H]3C[C@@H](N5CCCCC5)C3)C(=O)C4(C)C)nc(Nc3cc(C(=O)NC)c(C)cc3F)c21 [Example 101]"
  IC50 (nM): 0.2
- compound: "Cc1c(C(=O)NC(C)C)cc(Nc2nc(-c3cnc4c(c3)N([C@H]3C[C@@](C)(N5CCCCC5)C3)C(=O)C4(C)C)cc3ncn(C(C)C)c23)c(F)c1F [Example 220]"
  IC50 (nM): 0.09
- compound: "Cc1c(C(=O)NC2(C(F)F)CC2)cc(Nc2nc(-c3cnc4c(c3)N(C3CC(C)(N5CCC6C[C@H]5CO6)C3)C(=O)C4(C)C)cc3ncn(C(C)C)c23)c(F)c1F (stereo partly shown) [Example 191]"
  IC50 (nM): 0.09
